Parameter EC50: see the listing below.
# Target under test: T1, human PD-L1 expressed on cells (CHO / CHO-K1 cells transfected with full-length human PD-L1); native PD-L1 on … (human, UniProt Q9NZQ7 19-290)
# T1 construct: whole, on cells; also called PD-L1 expressing CHO cell; PD-L1 transfected CHO cells
# T1 sequence (Q9NZQ7 19-290): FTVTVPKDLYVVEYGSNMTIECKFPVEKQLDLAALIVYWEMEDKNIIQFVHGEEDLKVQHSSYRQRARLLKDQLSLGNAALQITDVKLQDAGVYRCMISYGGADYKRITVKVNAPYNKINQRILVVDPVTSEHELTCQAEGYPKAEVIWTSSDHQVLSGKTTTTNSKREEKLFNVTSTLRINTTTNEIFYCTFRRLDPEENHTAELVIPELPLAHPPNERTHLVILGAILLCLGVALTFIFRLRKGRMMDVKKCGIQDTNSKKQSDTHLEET
# Assay overview: FACS, CHO cells transfected with full-length human PD-L1, MFI against antibody concentration

>>> result("2.74.15.hAb5 (antibody, V domains shown, Humanized antibody with a human constant region of IgG4 isotype) VH: QVQLQESGPGLVKPSETLSLTCTVTGYSITSGYIWHWIRQPAGKGLEWIGYIHYSGTTDFNPSLESRVTISVDTSKNQFSLKLSSVTAADTAVYYCAREGRSYGGFAYWGQGTLVTVSS VL: DIQLTQSPSFLSASVGDRVTITCKASQSVSNGVAWYQQKPGKAPKLLIYYASNRFTGVPSRFSGSGSGTEFTLTISSLQPEDFATYYCQQDYSSPFTFGQGTKLEIK")
"1.11 nM"
>>> result("2.74.15.hAb6 (antibody, V domains shown, Humanized antibody with a human constant region of IgG4 isotype) VH: QVQLQESGPGLVKPSETLSLTCTVTGYSITSGYIWHWIRQPAGKGLEWIGYIHYSGTTDFNPSLESRVTISVDTSKNQFSLKLSSVTAADTAVYYCAREGRSYGGFAYWGQGTLVTVSS VL: DIQMTQSPSSLSASVGDRVTITCKASQSVSNGVAWYQQKPGKVPKLLIYYASNRFTGVPSRFSGSGSGTDFTLTISSLQPEDVATYYCQQDYSSPFTFGQGTKLEIK")
"1.08 nM"
>>> result("2.74.15.hAb4 (antibody, V domains shown, Humanized antibody with a human constant region of IgG4 isotype) VH: QVQLQESGPGLVKPSETLSLTCTVSGYSITSGYIWHWIRQPPGKGLEWIGYIHYSGTTDFNPSLESRVTISVDTSKNQFSLKLSSVTAADTAVYYCAREGRSYGGFAYWGQGTLVTVSA VL: SFVMTQSPSSLSASVGDRVTITCKASQSVSNGVAWYQQKPGKVPKLLIYYASNRFTGVPSRFSGSGSGTDFTLTISSLQPEDVATYYCQQDYSSPFTFGSGTELEIK")
"1.53 nM"
>>> result("2.74.15.hAb8 (antibody, V domains shown, Humanized antibody with a human constant region of IgG4 isotype) VH: QVQLQESGPGLVKPSETLSLTCTVSGYSITSGYIWHWIRQPPGKGLEWIGYIHYSGTTDFNPSLESRVTISVDTSKNQFSLKLSSVTAADTAVYYCAREGRSYGGFAYWGQGTLVTVSS VL: DIQMTQSPSSLSASVGDRVTITCKASQSVSNGVAWYQQKPGKVPKLLIYYASNRFTGVPSRFSGSGSGTDFTLTISSLQPEDVATYYCQQDYSSPFTFGQGTKLEIK")
"1.17 nM"

Okay, now this binder:
Record request: EC50 value, item 2.74.15.hAb7 (antibody, V domains shown, Humanized antibody with a human constant region of IgG4 isotype) VH: QVQLQESGPGLVKPSETLSLTCTVSGYSITSGYIWHWIRQPPGKGLEWIGYIHYSGTTDFNPSLESRVTISVDTSKNQFSLKLSSVTAADTAVYYCAREGRSYGGFAYWGQGTLVTVSS VL: DIQLTQSPSFLSASVGDRVTITCKASQSVSNGVAWYQQKPGKAPKLLIYYASNRFTGVPSRFSGSGSGTEFTLTISSLQPEDFATYYCQQDYSSPFTFGQGTKLEIK 1.18 nM
